All figures here come from patent US5935959A.

- Target: papain (Carica papaya, UniProt P00784)
- Sequence (P00784 134-345): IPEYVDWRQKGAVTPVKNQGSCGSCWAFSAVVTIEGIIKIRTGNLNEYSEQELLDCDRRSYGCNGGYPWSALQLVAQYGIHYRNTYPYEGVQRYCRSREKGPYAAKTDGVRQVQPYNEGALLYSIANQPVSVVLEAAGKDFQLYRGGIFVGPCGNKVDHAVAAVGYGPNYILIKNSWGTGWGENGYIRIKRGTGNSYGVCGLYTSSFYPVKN
- Experimental protocol: Assay of Papain-Inhibitory Activity (casein degradation)
- Conditions used: casein substrate, pH 8.0, 60 min, 30° C.
Readout type: pIC50
Entry type: numeric. Quantity: pIC50, the -log10 of concentration in molar units.

Bench note, papain (Carica papaya, UniProt P00784): CC(C)C[C@H](NC(=O)[C@H]1O[C@@H]1C(=O)O)C(=O)NCCCCNC(=N)N [Example E-64, reference compound] , pIC50 reads 7.49

---

- Target: μ-calpain (Homo sapiens)
- Construct: purchased Nakarai Tesque
- Sequence (P07384 whole entry): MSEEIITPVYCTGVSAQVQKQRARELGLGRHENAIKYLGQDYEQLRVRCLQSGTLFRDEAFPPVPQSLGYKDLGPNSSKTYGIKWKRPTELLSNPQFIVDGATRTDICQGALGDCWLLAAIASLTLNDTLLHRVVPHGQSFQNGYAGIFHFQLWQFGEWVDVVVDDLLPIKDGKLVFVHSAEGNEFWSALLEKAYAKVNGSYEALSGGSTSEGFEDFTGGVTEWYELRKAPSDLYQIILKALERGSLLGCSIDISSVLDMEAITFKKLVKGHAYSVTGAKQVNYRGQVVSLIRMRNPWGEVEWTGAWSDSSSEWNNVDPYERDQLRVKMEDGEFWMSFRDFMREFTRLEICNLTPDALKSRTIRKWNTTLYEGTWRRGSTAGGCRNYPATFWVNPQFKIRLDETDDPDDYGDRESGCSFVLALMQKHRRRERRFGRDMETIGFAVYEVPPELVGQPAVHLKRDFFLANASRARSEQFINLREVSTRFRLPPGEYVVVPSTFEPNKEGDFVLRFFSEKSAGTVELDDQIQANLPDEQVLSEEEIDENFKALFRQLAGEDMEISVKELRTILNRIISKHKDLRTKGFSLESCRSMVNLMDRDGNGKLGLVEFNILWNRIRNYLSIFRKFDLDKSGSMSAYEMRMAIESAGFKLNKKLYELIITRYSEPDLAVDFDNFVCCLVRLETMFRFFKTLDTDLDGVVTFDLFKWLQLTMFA
- Sequence (P04632 whole entry partner): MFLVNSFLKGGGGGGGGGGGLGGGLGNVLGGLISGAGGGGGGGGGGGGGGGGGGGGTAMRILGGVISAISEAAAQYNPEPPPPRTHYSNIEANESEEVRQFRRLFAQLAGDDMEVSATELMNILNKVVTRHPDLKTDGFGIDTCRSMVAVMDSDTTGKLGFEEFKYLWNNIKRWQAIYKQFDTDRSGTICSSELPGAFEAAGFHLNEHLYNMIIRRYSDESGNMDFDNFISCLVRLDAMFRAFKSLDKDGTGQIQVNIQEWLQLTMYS
- Experimental protocol: Assay of μ-Calpain-Inhibitory Activity (casein degradation)
- Type: biochemical
- Conditions used: casein substrate, pH 7.4, 60 min, 30° C.
- Method: The activity of μ-calpain (Nakarai Tesque) was assayed in accordance with the procedure described in the literature [Anal. Biochem., 208, 387-392 (1993)]. […] The mixture was allowed to stand at room temperature for 15 minutes and the absorbance was measured at 595 nm. […] The absorbance value thus found was used as the control value. […]
Readout type: pIC50
Entry type: numeric. Quantity: pIC50, the -log10 of concentration in molar units.

Use the examples below as a reference point.
compound=CC(=O)NCSC[C@H](NC(=O)[C@H]1O[C@@H]1C(=O)O)C(=O)N1CCN(c2ccccc2Cl)CC1 target="μ-calpain (Homo sapiens)" recorded_measurement=5.41
compound=O=C(O)[C@H]1O[C@@H]1C(=O)NC1(C(=O)N2CCN(c3ccc(F)cc3)CC2)CCCC1 target="μ-calpain (Homo sapiens)" recorded_measurement=3.84
compound="CC(C)C[C@H](NC(=O)[C@H]1O[C@@H]1C(=O)O)C(=O)NCCCCNC(=N)N [Example E-64, reference compound]" target="μ-calpain (Homo sapiens)" recorded_measurement=6.18

Now let's try a different one.
Just so you know, measured pIC50 for O=C(O)[C@H]1O[C@@H]1C(=O)NCC(=O)N1CCN(c2ccccc2Cl)CC1 came out at 4.76
